assay: AUC (0 to infinity) in Sprague-Dawley rat at 5 mg/kg, iv after 24 hrs by LC/MS/MS analysis; assay type: ADME, organism-based; parameters: time infinity, dose 5 mg/kg, route intravenous; conditions: plasma
EXPERIMENTAL_ENDPOINT: AUC(0-inf) (ng·h/mL)
Please respond with the number in ng·h/mL and leave the unit unwritten.

AUC(0-inf) for C/C=C/C[C@@H](C)[C@@H](O)[C@H]1C(=O)N[C@@H](CC)C(=O)N(C)C(SCCN(C)C)C(=O)N(C)[C@@H](CC(C)(C)O)C(=O)N[C@@H](C(C)C)C(=O)N(C)[C@@H](CC(C)C)C(=O)N[C@@H](C)C(=O)N[C@H](C)C(=O)N(C)[C@@H](CC(C)C)C(=O)N(C)[C@@H](CC(C)C)C(=O)N(C)[C@@H](C(C)C)C(=O)N1C (single isomer, unassigned) ?
37300
